target: HLA-B*18:01; experiment: IEDB peptide-MHC binding, purified MHC/direct/fluorescence; filed as Kd, often an IC50 or EC50 that approximates it; bounds were set here for any values at or beyond the usual limits of such assays; conditions: source organism: Alkhumra hemorrhagic fever virus
ENDPOINT: Kd (nM)
One number for each entry, in nM.

stdin: Given the sequence `LEFEALGFL` , what is its reported Kd?
stdout: 2.8

----------
molecular target: HLA-A*68:02; test: IEDB peptide-MHC binding, purified MHC/competitive/fluorescence; filed as Kd, often an IC50 or EC50 that approximates it; bounds were set here for any values at or beyond the usual limits of such assays; details: source organism: Francisella tularensis subsp. tularensis FSC198
ENDPOINT: Kd

stdin: Given the sequence `MGAGLVFPI` , what is its reported Kd?
stdout: ≤ 100 pM

----------
target: HLA-B*44:03; test: IEDB peptide-MHC binding, purified MHC/competitive/radioactivity; filed as Kd, often an IC50 or EC50 that approximates it; bounds were set here for any values at or beyond the usual limits of such assays; settings: source organism: Dengue virus 2 Jamaica/1409/1983
ENDPOINT: Kd (nM)
Answers are plain numbers, in nM.

stdin: Given the sequence `QEHETSWHYD` , what is its reported Kd?
stdout: 746

Now for the sequence whose Kd we want.
stdin: Given the sequence `MEEALRGLPI` , what is its reported Kd?
stdout: 1110

----------
biological target: HLA-A*02:01; experiment: IEDB peptide-MHC binding, purified MHC/direct/fluorescence; filed as Kd, often an IC50 or EC50 that approximates it; bounds were set here for any values at or beyond the usual limits of such assays; settings: source organism: Giardia lamblia ATCC 50803
ENDPOINT: pKd
Numbers only, as −log10 of the molar value.

stdin: Given the sequence `LLPYPIAGC` , what is its reported pKd?
stdout: 5.29

----------
biological target: HLA-B*57:01; assay: IEDB peptide-MHC binding, purified MHC/direct/fluorescence; filed as Kd, often an IC50 or EC50 that approximates it; bounds were set here for any values at or beyond the usual limits of such assays; conditions: source organism: Coxiella burnetii
pKd: −log10 of the molar value.
ENDPOINT: pKd

stdin: Given the sequence `HSGDSSCAF` , what is its reported pKd?
stdout: ≤ 4.70

----------
molecular target: HLA-A*02:03; test: IEDB peptide-MHC binding, purified MHC/competitive/radioactivity; filed as Kd, often an IC50 or EC50 that approximates it; bounds were set here for any values at or beyond the usual limits of such assays; conditions: source organism: Dengue virus 3 Martinique/1243/1999
For each record, write down the corresponding pKd.
One number for each entry, as −log10 of the molar value.

Some solved entries appear below for comparison.
stdin: Given the sequence `ILAGPMPVTA` , what is its reported pKd?
stdout: 6.90

stdin: Let us now turn to `RLASNAICSA`
stdout: 6.87

Now for the sequence whose pKd we want.
stdin: Given the sequence `GLFGKGSLV` , what is its reported pKd?
stdout: 8.53

----------
biological target: HLA-B*57:01; test: IEDB peptide-MHC binding, purified MHC/competitive/fluorescence; filed as Kd, often an IC50 or EC50 that approximates it; bounds were set here for any values at or beyond the usual limits of such assays; settings: source organism: Zaire ebolavirus
pKd: −log10 of the molar value.
For each record, write down the corresponding pKd.

Some solved entries appear below for comparison.
stdin: Given the sequence `GIVSSMHYK` , what is its reported pKd?
stdout: ≤ 4.70

stdin: Let us now turn to `DRLASTVIY`
stdout: ≤ 4.70

More entries:
stdin: Given the sequence `AENCYNLEI` , what is its reported pKd?
stdout: ≤ 4.70

----------
For each record, write down the corresponding Kd.
molecular target: HLA-A*02:01; experiment: IEDB peptide-MHC binding, purified MHC/direct/fluorescence; filed as Kd, often an IC50 or EC50 that approximates it; bounds were set here for any values at or beyond the usual limits of such assays; details: source organism: Brucella melitensis

stdin: Given the sequence `RLWNGRRCR` , what is its reported Kd?
stdout: ≥ 20 µM

Now for the sequence whose Kd we want.
stdin: Given the sequence `RVISDGYFK` , what is its reported Kd?
stdout: ≥ 20 µM

----------
target: HLA-B*57:01; assay: IEDB peptide-MHC binding, purified MHC/competitive/fluorescence; filed as Kd, often an IC50 or EC50 that approximates it; bounds were set here for any values at or beyond the usual limits of such assays; settings: source organism: Choclo virus
pKd: −log10 of the molar value.
ENDPOINT: pKd

stdin: Given the sequence `LPSSSSYSY` , what is its reported pKd?
stdout: ≤ 4.70

----------
target: HLA-C*08:02; experiment: IEDB peptide-MHC binding, purified MHC/direct/fluorescence; filed as Kd, often an IC50 or EC50 that approximates it; bounds were set here for any values at or beyond the usual limits of such assays; details: source organism: SARS-CoV1
pKd: −log10 of the molar value.
ENDPOINT: pKd

stdin: Given the sequence `KSYEHQTPF` , what is its reported pKd?
stdout: ≤ 4.70

----------
For each record, write down the corresponding pKd.
biological target: HLA-A*69:01; assay: IEDB peptide-MHC binding, purified MHC/direct/fluorescence; filed as Kd, often an IC50 or EC50 that approximates it; bounds were set here for any values at or beyond the usual limits of such assays; settings: source organism: Rickettsia conorii
Numbers only, as −log10 of the molar value.

stdin: Given the sequence `DLAAGVDVV` , what is its reported pKd?
stdout: 5.83

Now for the sequence whose pKd we want.
stdin: Given the sequence `YFSDVSAPV` , what is its reported pKd?
stdout: 7.39

----------
target: HLA-B*15:02; assay: IEDB peptide-MHC binding, purified MHC/direct/fluorescence; filed as Kd, often an IC50 or EC50 that approximates it; bounds were set here for any values at or beyond the usual limits of such assays; conditions: source organism: H9N2 subtype Influenza A virus (A/swine/Korea/S83/2004(H9N2))
ENDPOINT: Kd (µM)
Answers are plain numbers, in µM.

stdin: Form field - read-out: Kd; system: HLA-B*15:02; submitted item: `FQKDAKVLF`
stdout: 1.72

----------
target: HLA-C*15:02; assay: IEDB peptide-MHC binding, purified MHC/direct/fluorescence; filed as Kd, often an IC50 or EC50 that approximates it; bounds were set here for any values at or beyond the usual limits of such assays; conditions: source organism: Homo sapiens
ENDPOINT: Kd (nM)
Answers are plain numbers, in nM.

stdin: Given the sequence `NAFHHPSAV` , what is its reported Kd?
stdout: 695

----------
target: HLA-A*30:02; test: IEDB peptide-MHC binding, purified MHC/competitive/radioactivity; filed as Kd, often an IC50 or EC50 that approximates it; bounds were set here for any values at or beyond the usual limits of such assays; conditions: source organism: Dengue virus 4 Dominica/814669/1981
ENDPOINT: Kd (nM)
Give bare numbers, in nM.

stdin: Form field - read-out: Kd; system: HLA-A*30:02; submitted item: `IGKMFESTY`
stdout: 338

----------
target: HLA-A*23:01; assay: IEDB peptide-MHC binding, purified MHC/direct/fluorescence; filed as Kd, often an IC50 or EC50 that approximates it; bounds were set here for any values at or beyond the usual limits of such assays; settings: source organism: Vibrio cholerae
ENDPOINT: Kd (nM)
Answers are plain numbers, in nM.

stdin: Given the sequence `RYQAQQVEW` , what is its reported Kd?
stdout: 4.6

----------
biological target: HLA-A*24:03; test: IEDB peptide-MHC binding, purified MHC/direct/fluorescence; filed as Kd, often an IC50 or EC50 that approximates it; bounds were set here for any values at or beyond the usual limits of such assays; conditions: source organism: Escherichia coli O157:H7
ENDPOINT: Kd (nM)
Give bare numbers, in nM.

stdin: Given the sequence `RTLNELWFL` , what is its reported Kd?
stdout: 3.5

----------
biological target: HLA-B*15:17; test: IEDB peptide-MHC binding, purified MHC/direct/fluorescence; filed as Kd, often an IC50 or EC50 that approximates it; bounds were set here for any values at or beyond the usual limits of such assays; conditions: source organism: H9N2 subtype Influenza A virus (A/swine/Korea/S83/2004(H9N2))
pKd: −log10 of the molar value.
ENDPOINT: pKd

stdin: Given the sequence `FQKDAKVLF` , what is its reported pKd?
stdout: ≤ 4.70

----------
For each record, write down the corresponding pKd.
target: HLA-B*44:02; assay: IEDB peptide-MHC binding, purified MHC/competitive/radioactivity; filed as Kd, often an IC50 or EC50 that approximates it; bounds were set here for any values at or beyond the usual limits of such assays; settings: source organism: Dengue virus 1 Brazil/97-11/1997
Numbers only, as −log10 of the molar value.

Quick batch: pKd for everything below.
1. SEFNTYKRSG
2. AEALKGMPI

stdout:
5.66
9.00

----------
molecular target: HLA-A*69:01; experiment: IEDB peptide-MHC binding, purified MHC/direct/fluorescence; filed as Kd, often an IC50 or EC50 that approximates it; bounds were set here for any values at or beyond the usual limits of such assays; settings: source organism: Haemophilus influenzae
ENDPOINT: Kd (nM)
Numbers only, in nM.

Quick batch: Kd for everything below.
1. AILGVLATL
2. RFLEDYFGV

stdout:
1. 238
2. 547
